Reference for the values: DBAASP

Consider compounds characterized by their MIC with Staphylococcus aureus NCTC 8325.
Provide only the numeric value, understood in µM.

CC[C@H](C)[C@H](NC(=O)CNC(=O)[C@H](CO)NC(=O)[C@H](CC(C)C)NC(=O)[C@H](CC(C)C)NC(=O)[C@H](CCCCN)NC(=O)CNC(=O)[C@@H](NC(=O)[C@@H](NC(=O)[C@@H]1CCCN1C(=O)[C@H](CC(C)C)NC(=O)[C@@H](NC(=O)[C@@H](NC(=O)[C@@H]1CCCN1C(=O)[C@H](CC(C)C)NC(=O)[C@@H](N)Cc1ccccc1)C(C)C)[C@@H](C)CC)C(C)C)[C@@H](C)CC)C(=O)N[C@@H](CC(C)C)C(N)=O; 25

Okay, now this compound:
Problem: Look up MIC for this compound: CC[C@H](C)[C@H](NC(=O)[C@H](CC(C)C)NC(=O)[C@H](C)NC(=O)[C@@H]1CCCN1C(=O)[C@H](Cc1ccccc1)NC(=O)[C@H](C)NC(=O)[C@H](CCCCN)NC(=O)[C@H](CCSC)NC(=O)[C@H](CC(C)C)NC(=O)CNC(=O)CNC(=O)[C@H](CC(C)C)NC(=O)[C@@H](N)Cc1ccccc1)C(=O)N[C@H]1CSSC[C@@H](C(=O)O)NC(=O)[C@H](CCCCN)NC(=O)[C@H](CCCCN)NC(=O)[C@H]([C@@H](C)O)NC(=O)[C@H](C(C)C)NC(=O)[C@H](C)NC1=O
Solution: 17
